target: CYP2A6 (Homo sapiens); assay: biochemical
Measurement label: pIC50
Friendly reminder that pIC50 comes from taking -log10 of the concentration in mol/L.

Complete the entry with pIC50 for "N#CC=Cc1ccccc1"
5.06

Complete the entry with pIC50 for OC/C=C/c1ccccc1 [cinnamic alcohol, reference compound]
3.45

----------
biological target: CYP2A6 (Homo sapiens, UniProt P11509, K28S/Q25K/Q26K/R27T/W24A); assay: Spectral ligand binding (KS) to purified CYP2A6 expressed in Escherichia coli; settings: read-out: Ks
Sequence (P11509 with tags, fused parts or gaps limits assumed, stated change not applied): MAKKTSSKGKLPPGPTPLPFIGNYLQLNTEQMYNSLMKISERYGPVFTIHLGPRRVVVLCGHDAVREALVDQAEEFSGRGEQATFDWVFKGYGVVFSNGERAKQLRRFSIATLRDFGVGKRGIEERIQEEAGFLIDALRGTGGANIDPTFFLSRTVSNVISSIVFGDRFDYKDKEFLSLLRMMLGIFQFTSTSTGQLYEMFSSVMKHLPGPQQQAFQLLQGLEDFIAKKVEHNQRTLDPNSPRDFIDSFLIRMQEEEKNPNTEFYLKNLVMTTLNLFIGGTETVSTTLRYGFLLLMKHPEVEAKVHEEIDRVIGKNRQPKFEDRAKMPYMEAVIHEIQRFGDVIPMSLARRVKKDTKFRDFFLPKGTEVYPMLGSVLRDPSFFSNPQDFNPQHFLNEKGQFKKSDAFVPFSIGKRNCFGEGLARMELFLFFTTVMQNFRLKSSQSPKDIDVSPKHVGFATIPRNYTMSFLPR
Measurement label: pKd
Friendly reminder that pKd comes from taking -log10 of the concentration in mol/L.

Complete the entry with pKd for "O=C/C=C/c1ccc(Cl)cc1"
4.31

Complete the entry with pKd for "CCC(C=O)=Cc1ccccc1"
5.52

Complete the entry with pKd for "CCCCC(C=O)=Cc1ccccc1"
4.43

Complete the entry with pKd for "CC(C)C(C=O)=Cc1ccccc1"
5.49

Complete the entry with pKd for "CCCC(C=O)=Cc1ccccc1"
5.11
